Target: Protein lin-28 homolog A (Homo sapiens, UniProt Q9H9Z2)
Sequence (Q9H9Z2 whole entry): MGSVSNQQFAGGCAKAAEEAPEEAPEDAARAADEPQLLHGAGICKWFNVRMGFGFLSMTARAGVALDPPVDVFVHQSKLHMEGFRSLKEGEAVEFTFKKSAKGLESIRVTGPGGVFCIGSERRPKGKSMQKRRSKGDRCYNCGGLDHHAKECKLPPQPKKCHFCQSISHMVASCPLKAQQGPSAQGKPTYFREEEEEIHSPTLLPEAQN
Assay: Inhibition of Cy5-preE-let-7g binding to recombinant human N-terminal His6-tagged Lin28a expressed in Escherichia coli Rosetta2 (DE3) pLysS measured after 30 to 60 mins by electrophoretic mobility shift assay
pIC50: −log10 of the molar value.
quantity_measured: pIC50

>  <structure>
NC(=O)c1c(Nc2ccc(Cl)cc2Cl)[nH]c2c(Cl)c(Cl)ccc2c1=O

>  <meas_value>
4.96

$$$$
>  <structure>
NC(=O)c1c(Nc2ccc(Cl)cc2Cl)[nH]c2c(Cl)ccc(Cl)c2c1=O

>  <meas_value>
5.32

$$$$
